# PROCEDURE_SUMMARY: Antiproliferative activity against human BC1 cell line assessed as inhibition of cell viability measured for 6 to 7 days by cell titer glo assay
# Type: functional, cell-based
pEC50: −log10 of the molar value.

COMPOUND: CCn1cc(-c2ccnc3[nH]c(-c4cccc(CN(C)C)c4)cc23)c(-c2ccc(NC(=O)N(C)C)cc2)n1 [GSK-1070916]
pEC50: 7.74

* * *

# Tested on: NCI-H157
# PROCEDURE_SUMMARY: Antiproliferative activity against human NCI-H157 cells assessed as inhibition of cell viability measured for 6 to 7 days by cell titer glo assay
# Format: functional, cell-based

COMPOUND_STRING: CCn1cc(-c2ccnc3[nH]c(-c4cccc(CN(C)C)c4)cc23)c(-c2ccc(NC(=O)N(C)C)cc2)n1
EC50: 8 nM

* * *

# PROCEDURE_SUMMARY: Antiproliferative activity against human Karpas-231 cells assessed as inhibition of cell viability measured for 6 to 7 days by cell titer glo assay
# Type: functional, cell-based

COMPOUND_STRING: CCn1cc(-c2ccnc3[nH]c(-c4cccc(CN(C)C)c4)cc23)c(-c2ccc(NC(=O)N(C)C)cc2)n1
EC50 / nM: 3

* * *

# System: L-428
# PROCEDURE_SUMMARY: Antiproliferative activity against human L-428 cells assessed as inhibition of cell viability measured for 6 to 7 days by cell titer glo assay
# Type: functional, cell-based

MOLECULE: CCn1cc(-c2ccnc3[nH]c(-c4cccc(CN(C)C)c4)cc23)c(-c2ccc(NC(=O)N(C)C)cc2)n1 [GSK-1070916]
TESTED_SYSTEM: L-428
EC50 / nM: 31

* * *

# Test system: SK-MEL-5
# PROCEDURE_SUMMARY: Antiproliferative activity against human SK-MEL-5 cells assessed as inhibition of cell viability measured for 6 to 7 days by cell titer glo assay
# Type: functional, cell-based

COMPOUND: CCn1cc(-c2ccnc3[nH]c(-c4cccc(CN(C)C)c4)cc23)c(-c2ccc(NC(=O)N(C)C)cc2)n1 [GSK-1070916]
EC50, nM: 8

* * *

# Test system: OVCAR-4
# PROCEDURE_SUMMARY: Antiproliferative activity against human OVCAR-4 cells assessed as inhibition of cell viability measured for 6 to 7 days by cell titer glo assay
# Format: functional, cell-based
ASSAY_READOUT: EC50 (nM)

COMPOUND_STRING: CCn1cc(-c2ccnc3[nH]c(-c4cccc(CN(C)C)c4)cc23)c(-c2ccc(NC(=O)N(C)C)cc2)n1
TESTED_SYSTEM: OVCAR-4
ENDPOINT_RESULT: 11

* * *

# PROCEDURE_SUMMARY: Antiproliferative activity against human Hs 445 cells assessed as inhibition of cell viability measured for 6 to 7 days by cell titer glo assay
# Format: functional, cell-based
pEC50: −log10 of the molar value.

COMPOUND_STRING: CCn1cc(-c2ccnc3[nH]c(-c4cccc(CN(C)C)c4)cc23)c(-c2ccc(NC(=O)N(C)C)cc2)n1
pEC50: 8.30
